target: human cannabinoid type 1 receptor (Homo sapiens, UniProt P21554); assay: CB1 receptor competitive binding assay with [3H]CP-55,940; details: read-out: CB1 Ki; mean ± SD, at least three experiments in duplicate
Sequence (P21554 whole entry): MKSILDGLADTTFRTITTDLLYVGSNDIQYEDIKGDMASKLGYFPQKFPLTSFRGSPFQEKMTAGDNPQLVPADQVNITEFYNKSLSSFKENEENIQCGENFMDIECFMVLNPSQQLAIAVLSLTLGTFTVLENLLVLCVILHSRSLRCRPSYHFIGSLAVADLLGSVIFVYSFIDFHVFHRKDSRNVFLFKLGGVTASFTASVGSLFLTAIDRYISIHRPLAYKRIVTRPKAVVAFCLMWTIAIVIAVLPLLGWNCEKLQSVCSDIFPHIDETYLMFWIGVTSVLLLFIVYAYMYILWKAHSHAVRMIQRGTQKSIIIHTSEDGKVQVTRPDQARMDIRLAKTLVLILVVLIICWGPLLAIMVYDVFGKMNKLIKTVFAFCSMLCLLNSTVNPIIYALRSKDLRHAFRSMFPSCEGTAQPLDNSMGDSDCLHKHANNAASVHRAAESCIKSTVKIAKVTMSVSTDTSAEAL
pKi: −log10 of the molar value.
READOUT TYPE: pKi

CCCCCn1c(=O)c(-c2cn(C34CC5CC(CC(C5)C3)C4)nn2)cc2ccccc21
6.49
CCCCCn1cc(-c2nc(C34CC5CC(CC(C5)C3)C4)no2)c(=O)c2cc(-c3ccco3)ccc21
7.48
CC(O)CCCn1cc(-c2cn(C34CC5CC(CC(C5)C3)C4)nn2)c(=O)c2cc(-c3ccco3)ccc21 (centres unmarked)
< 5.00
CCCCCn1cc(-c2nnc(C34CC5CC(CC(C5)C3)C4)o2)c(=O)c2cc(Br)ccc21
< 5.00
CCCCCn1cc(-c2nc(C34CC5CC(CC(C5)C3)C4)no2)c(=O)c2cc(Br)ccc21
6.68

QUERY: Can you look up the measured pKi of CCCCCn1cc(-c2nnc(C34CC5CC(CC(C5)C3)C4)o2)c(=O)c2cc(-c3ccco3)ccc21 for me?
RESULT: < 5.00

QUERY: Which pKi value belongs to CCCCCn1cc(-c2nc(C34CC5CC(CC(C5)C3)C4)no2)c(=O)c2cc(-c3ccc(OC(C)C)cc3)ccc21 ?
RESULT: < 5.00

QUERY: Looking for the measured pKi of O=c1c(-c2cn(C34CC5CC(CC(C5)C3)C4)nn2)c[nH]c2ccc(-c3ccco3)cc12 , can you help?
RESULT: < 5.00

###

target: UniProt:P34972; assay: CB2 receptor competitive binding assay with [3H]CP-55,940; settings: read-out: CB2 Ki; mean ± SD, at least three experiments in duplicate
Examples of compounds with documented pKi follow.
Field pKi (float): negative decimal logarithm of the concentration in molar.

CCCCCn1cc(-c2nnc(C34CC5CC(CC(C5)C3)C4)o2)c(=O)c2cc(-c3ccco3)ccc21
8.19

QUERY: pKi for CC(O)CCCn1cc(-c2cn(C34CC5CC(CC(C5)C3)C4)nn2)c(=O)c2cc(-c3ccco3)ccc21 (stereo not shown) ?
RESULT: 6.72

QUERY: Record request: pKi value, item CCCCCOc1nc2ccccc2cc1-c1cn(C23CC4CC(CC(C4)C2)C3)nn1
RESULT: 7.90

QUERY: Looking for the measured pKi of CCCCCn1c(=O)c(-c2cn(C34CC5CC(CC(C5)C3)C4)nn2)cc2ccccc21 , can you help?
RESULT: 7.95

###

target: human cannabinoid type 2 receptor (Homo sapiens); experiment: CB2 receptor competitive binding assay with [3H]CP-55,940; settings: Ki(CB1)/Ki(CB2) ratio
READOUT TYPE: S.I. (selectivity index for CB2, Ki(CB1)/Ki(CB2))

Worked examples follow.
CC(O)CCCn1cc(-c2cn(C34CC5CC(CC(C5)C3)C4)nn2)c(=O)c2cc(-c3ccco3)ccc21 (centres unmarked)
> 52
CCCCCn1cc(-c2nc(C34CC5CC(CC(C5)C3)C4)no2)c(=O)c2cc(-c3ccco3)ccc21
82
CCCCCn1c(=O)c(-c2cn(C34CC5CC(CC(C5)C3)C4)nn2)cc2ccccc21
29
CCCCCn1cc(-c2nnc(C34CC5CC(CC(C5)C3)C4)o2)c(=O)c2cc(Br)ccc21
> 40
CCCCCOc1nc2ccccc2cc1-c1cn(C23CC4CC(CC(C4)C2)C3)nn1
271

QUERY: State its S.I. (selectivity index for CB2, Ki(CB1)/Ki(CB2)) on human cannabinoid type 2 receptor (Homo sapiens): CCCCCn1cc(-c2cn(C34CC5CC(CC(C5)C3)C4)nn2)c(=O)c2cc(-c3ccc(OC(C)C)cc3)ccc21
RESULT: > 6

QUERY: Could you share what S.I. (selectivity index for CB2, Ki(CB1)/Ki(CB2)) was measured for CCCCCn1cc(-c2nc(C34CC5CC(CC(C5)C3)C4)no2)c(=O)c2cc(Br)ccc21 , tested on human cannabinoid type 2 receptor (Homo sapiens)?
RESULT: 76

QUERY: What reported S.I. (selectivity index for CB2, Ki(CB1)/Ki(CB2)) corresponds to CCCCCn1cc(-c2nnc(C34CC5CC(CC(C5)C3)C4)o2)c(=O)c2cc(-c3ccco3)ccc21 on human cannabinoid type 2 receptor (Homo sapiens)?
RESULT: > 1543

###

assay: Experimental logP determined by HPLC; type: physicochemical; settings: HPLC, RP-18 column, MeOH/H2O, extrapolated to zero organic solvent
READOUT TYPE: logP Exp
Please reply with the number alone, leaving off any unit.

CCCCCn1cc(-c2nc(C34CC5CC(CC(C5)C3)C4)no2)c(=O)c2cc(-c3ccc(OC(C)C)cc3)ccc21 [Compound 7]
7.71

QUERY: What does the record list as logP Exp for CCCCCn1cc(-c2nnc(C34CC5CC(CC(C5)C3)C4)o2)c(=O)c2cc(Br)ccc21 [Compound 9] ?
RESULT: 5.15

QUERY: // logP Exp lookup, key: CCCCCn1cc(-c2nnc(C34CC5CC(CC(C5)C3)C4)o2)c(=O)c2cc(-c3ccco3)ccc21 [Compound 12]
RESULT: 5.26

QUERY: Using the record for CCCCCn1cc(-c2nc(C34CC5CC(CC(C5)C3)C4)no2)c(=O)c2cc(Br)ccc21 [Compound 10] , report its logP Exp.
RESULT: 5.77

QUERY: Please give the measured logP Exp for this compound: CCCCCn1cc(-c2nc(C34CC5CC(CC(C5)C3)C4)no2)c(=O)c2cc(-c3ccco3)ccc21 [Compound 13]
RESULT: 6.38

###

target: UniProt P34972; assay: CB2 receptor competitive binding assay with [3H]CP-55,940
Attribute: Ki
Note: unit µM is implicit; provide only the numeric part.

CCCCCn1cc(-c2cn(C34CC5CC(CC(C5)C3)C4)nn2)c(=O)c2cc(-c3ccc(OC(C)C)cc3)ccc21 [Compound 5]
1.68

Query compound follows.
QUERY: # Ki lookup, item CCCCCn1cc(-c2cn(C34CC5CC(CC(C5)C3)C4)nn2)c(=O)c2cc(Br)ccc21 [Compound 8]
RESULT: 0.0322

###

pKi by entry:
target: human cannabinoid type 2 receptor (Homo sapiens, UniProt P34972); test: CB2 receptor competitive binding assay with [3H]CP-55,940; details: read-out: CB2 Ki; mean ± SD, at least three experiments in duplicate
Sequence (P34972 whole entry): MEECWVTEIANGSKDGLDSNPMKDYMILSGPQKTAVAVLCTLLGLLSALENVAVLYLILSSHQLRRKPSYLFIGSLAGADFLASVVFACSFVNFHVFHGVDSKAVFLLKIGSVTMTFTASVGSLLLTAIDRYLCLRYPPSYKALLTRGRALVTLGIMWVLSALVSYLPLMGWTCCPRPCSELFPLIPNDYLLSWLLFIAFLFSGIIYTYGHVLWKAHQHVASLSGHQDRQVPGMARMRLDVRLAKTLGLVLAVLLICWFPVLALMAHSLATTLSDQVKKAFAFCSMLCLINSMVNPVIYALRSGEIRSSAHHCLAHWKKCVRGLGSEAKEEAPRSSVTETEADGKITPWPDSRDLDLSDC
Hey, just a heads up that pKi is the negative log base 10 of the concentration in molar.

CCCCCn1cc(-c2nnc(C34CC5CC(CC(C5)C3)C4)o2)c(=O)c2cc(Br)ccc21
6.60
CCCCCn1cc(-c2nc(C34CC5CC(CC(C5)C3)C4)no2)c(=O)c2cc(Br)ccc21
8.57

Now turn to the next compound.
QUERY: Would you mind telling me what pKi value was observed for CCCCCn1cc(-c2nc(C34CC5CC(CC(C5)C3)C4)no2)c(=O)c2cc(-c3ccco3)ccc21 ?
RESULT: 9.40

All figures here come from paper PMC3516921.
